- System: 287954-098-R-J1 tumor spheroid viability
- Test description: Anticancer human tumor 287954-098-R-J1 patient-derived Ewing sarcoma cell line growth inhibition
- Condition parameters: second compound 0.003 µM; first compound 1 µM; stronger effect = lower value; spheroids with HUVEC and MSC
Measured endpoint: viability, T/C

INSERT INTO measurements (molecule, measurement) VALUES
  ('COc1cc(C)[nH]c(=O)c1CN1CCc2c(Cl)cc(C(OC)C3COC3)c(Cl)c2C1=O (stereo not given) + COc1cc2c(cc1O)CCNC21CSC2c3c(OC(C)=O)c(C)c4c(c3C(COC1=O)N1C(O)C3Cc5cc(C)c(OC)c(O)c5C(C21)N3C)OCO4', '0.16%'),
  ('Cc1cc(C)c(CNC(=O)c2cc(-c3ccc(CN4CCOCC4)cc3)cc3c2cnn3C2CCCC2)c(=O)[nH]1 + COc1cc2c(cc1O)CCNC21CSC2c3c(OC(C)=O)c(C)c4c(c3C(COC1=O)N1C(O)C3Cc5cc(C)c(OC)c(O)c5C(C21)N3C)OCO4', '0.12%');

The molecule COc1cc(C)[nH]c(=O)c1CN1CCc2c(Cl)cc(C(OC)C3COC3)c(Cl)c2C1=O (stereo not given) + CC[C@@]1(O)C(=O)OCc2c1cc1n(c2=O)Cc2cc3c(CN(C)C)c(O)ccc3nc2-1 showed viability, T/C equal to 95.5%

Sure, the documented viability, T/C for CC1COCCN1c1cc(-c2ccnn2C)c2ccnc(-c3ccn[nH]3)c2n1 (stereo not given) + COc1cc2c(cc1O)CCNC21CSC2c3c(OC(C)=O)c(C)c4c(c3C(COC1=O)N1C(O)C3Cc5cc(C)c(OC)c(O)c5C(C21)N3C)OCO4 is 0.12%

Entry Cc1cc(C)c(CNC(=O)c2cc(-c3ccc(CN4CCOCC4)cc3)cc3c2cnn3C2CCCC2)c(=O)[nH]1 + CC[C@@]1(O)C(=O)OCc2c1cc1n(c2=O)Cc2cc3c(CN(C)C)c(O)ccc3nc2-1 ; viability, T/C = 96.5%

====

- Tested on: 287954-098-R-J1 tumor spheroid viability
- Test description: Anticancer human tumor 287954-098-R-J1 cell line growth inhibition;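 further: spheroids exposed to compound for 7 days before viability readout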;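 on viability, T/C: luminescent signal taken as surrogate of viable cell content; 100% = DMSO vehicle control viability and lower means growth inhibition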
- Condition parameters: second compound 31.6 µM; first compound 3 µM; stronger effect = lower value; spheroids with HUVEC and MSC
Measured endpoint: viability, T/C (%)
Note: unit % is implicit; provide only the numeric part.

Example entries begin here.
INSERT INTO measurements (compound, measurement) VALUES
  ('O=C(c1cc(Cc2n[nH]c(=O)c3ccccc23)ccc1F)N1CCN(C(=O)C2CC2)CC1 + Cn1nnc2c(C(N)=O)ncn2c1=O', 56),
  ('Cn1ncnc1[C@H]1c2n[nH]c(=O)c3cc(F)cc(c23)N[C@@H]1c1ccc(F)cc1 + Cn1nnc2c(C(N)=O)ncn2c1=O', 2.04),
  ('Cc1sc2c(c1C)C(c1ccc(Cl)cc1)=NC(CC(=O)Nc1ccc(O)cc1)c1nnc(C)n1-2 (centres undefined) + Cn1nnc2c(C(N)=O)ncn2c1=O', 1.92);

As a next step, examine the compound that follows.
Sample CNCc1ccc(-c2cc(-c3nc(-c4ccc(S(=O)(=O)C(C)C)cc4)cnc3N)on2)cc1 + Cn1nnc2c(C(N)=O)ncn2c1=O , system: 287954-098-R-J1 tumor spheroid viability. Its viability, T/C is 0.1

====

- Tested on: 287954-098-R-J1 tumor spheroid viability
- Test description: Anticancer human tumor 287954-098-R-J1 cell line growth inhibition;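 further: spheroids exposed to compound for 7 days before viability readout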
- Condition parameters: compound alone; run of 10/17/2019; spheroids with HUVEC and MSC
Measured endpoint: IC50

Lab note: measured IC50 of `Cn1nnc2c(C(N)=O)ncn2c1=O` was > 100 µM

Reported IC50 for `CC[C@@]1(O)C(=O)OCc2c1cc1n(c2=O)Cc2cc3c(CN(C)C)c(O)ccc3nc2-1` was 19.4 nM [middle of 5 runs]

====

- Tested on: 287954-098-R-J1 tumor spheroid viability
- Test description: Anticancer human tumor 287954-098-R-J1 cell line growth inhibition;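 further: spheroids exposed to compound for 7 days before viability readout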;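 on viability, T/C: luminescent signal taken as surrogate of viable cell content; 100% = DMSO vehicle control viability and lower means growth inhibition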
- Condition parameters: second compound 0.003 µM; first compound 1 µM; stronger effect = lower value; spheroids with HUVEC and MSC
Item-by-item account of viability, T/C
Write the answer as a number in %, unit excluded.

Here is how some compounds turned out for viability, T/C.
INSERT INTO measurements (compound, target_system, unit_spec, measurement) VALUES
  ('CC(C)n1c(=O)n(C)c2cnc3cc(F)c(-c4ccc(OCCCN5CCCCC5)nc4)cc3c21 + COc1cc2c(cc1O)CCNC21CSC2c3c(OC(C)=O)c(C)c4c(c3C(COC1=O)N1C(O)C3Cc5cc(C)c(OC)c(O)c5C(C21)N3C)OCO4', '287954-098-R-J1 tumor spheroid viability', '%', 0.23),
  ('CC1COCCN1c1cc(-c2ccnn2C)c2ccnc(-c3ccn[nH]3)c2n1 (configuration not stated) + CC[C@@]1(O)C(=O)OCc2c1cc1n(c2=O)Cc2cc3c(CN(C)C)c(O)ccc3nc2-1', '287954-098-R-J1 tumor spheroid viability', '%', 2.65),
  ('COc1ccc([C@@H](O)c2cc(-c3ncnc4cc(N5CCOCC5)ccc34)c(F)cc2Cl)nn1 + COc1cc2c(cc1O)CCNC21CSC2c3c(OC(C)=O)c(C)c4c(c3C(COC1=O)N1C(O)C3Cc5cc(C)c(OC)c(O)c5C(C21)N3C)OCO4', '287954-098-R-J1 tumor spheroid viability', '%', 0.33),
  ('[2H]c1nc(C)nc([2H])c1-c1cc(NC[C@@H](C)c2cccc3c(C(=O)NC)ccnc23)ncn1 + CC[C@@]1(O)C(=O)OCc2c1cc1n(c2=O)Cc2cc3c(CN(C)C)c(O)ccc3nc2-1', '287954-098-R-J1 tumor spheroid viability', '%', 107);

Data point: COc1ccc([C@@H](O)c2cc(-c3ncnc4cc(N5CCOCC5)ccc34)c(F)cc2Cl)nn1 + CC[C@@]1(O)C(=O)OCc2c1cc1n(c2=O)Cc2cc3c(CN(C)C)c(O)ccc3nc2-1 ; viability, T/C = 105

Sure, the documented viability, T/C for CC(C)n1c(=O)n(C)c2cnc3cc(F)c(-c4ccc(OCCCN5CCCCC5)nc4)cc3c21 + CC[C@@]1(O)C(=O)OCc2c1cc1n(c2=O)Cc2cc3c(CN(C)C)c(O)ccc3nc2-1 is 18

// field: viability, T/C; key: [2H]c1nc(C)nc([2H])c1-c1cc(NC[C@@H](C)c2cccc3c(C(=O)NC)ccnc23)ncn1 + COc1cc2c(cc1O)CCNC21CSC2c3c(OC(C)=O)c(C)c4c(c3C(COC1=O)N1C(O)C3Cc5cc(C)c(OC)c(O)c5C(C21)N3C)OCO4 ; value = 0.15

====

- Tested on: 287954-098-R-J1 tumor spheroid viability
- Test description: Anticancer human tumor 287954-098-R-J1 cell line growth inhibition;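 further: spheroids exposed to compound for 7 days before viability readout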
- Condition parameters: curve of first compound; second compound 1 µM; spheroids with HUVEC and MSC
Measured endpoint: pIC50
Please keep in mind that pIC50 is minus log10 of the molar concentration; only the number is needed.

INSERT INTO measurements (molecule, measurement) VALUES
  ('CC1COCCN1c1cc(-c2ccnn2C)c2ccnc(-c3ccn[nH]3)c2n1 (stereo not drawn) + Cn1nnc2c(C(N)=O)ncn2c1=O', 6.77);

Here is the next item to consider.
Documented pIC50 of CNCc1ccc(-c2cc(-c3nc(-c4ccc(S(=O)(=O)C(C)C)cc4)cnc3N)on2)cc1 + Cn1nnc2c(C(N)=O)ncn2c1=O : 6.26

====

- Tested on: 287954-098-R-J1 tumor spheroid viability
- Test description: Anticancer human tumor 287954-098-R-J1 cell line growth inhibition;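 further: spheroids exposed to compound for 7 days before viability readout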;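 on viability, T/C: luminescent signal taken as surrogate of viable cell content; 100% = DMSO vehicle control viability and lower means growth inhibition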
- Condition parameters: second compound 0.03 µM; first compound 0.3 µM; stronger effect = lower value; spheroids with HUVEC and MSC
Measured endpoint: viability, T/C (%)
Record the value in %, omitting the unit from your answer.

Some solved cases for reference:
INSERT INTO results (compound, measurement) VALUES
  ('CNCc1ccc(-c2cc(-c3nc(-c4ccc(S(=O)(=O)C(C)C)cc4)cnc3N)on2)cc1 + CC[C@@]1(O)C(=O)OCc2c1cc1n(c2=O)Cc2cc3c(CN(C)C)c(O)ccc3nc2-1', 0.64),
  ('O=C(c1cc(Cc2n[nH]c(=O)c3ccccc23)ccc1F)N1CCN(C(=O)C2CC2)CC1 + CC[C@@]1(O)C(=O)OCc2c1cc1n(c2=O)Cc2cc3c(CN(C)C)c(O)ccc3nc2-1', 2.14),
  ('Cc1sc2c(c1C)C(c1ccc(Cl)cc1)=NC(CC(=O)Nc1ccc(O)cc1)c1nnc(C)n1-2 (centres undefined) + CC[C@@]1(O)C(=O)OCc2c1cc1n(c2=O)Cc2cc3c(CN(C)C)c(O)ccc3nc2-1', 1.63);

Please look at the following compound next.
get_value(item= Cn1ncnc1[C@H]1c2n[nH]c(=O)c3cc(F)cc(c23)N[C@@H]1c1ccc(F)cc1 + CC[C@@]1(O)C(=O)OCc2c1cc1n(c2=O)Cc2cc3c(CN(C)C)c(O)ccc3nc2-1 , readout=viability, T/C) returns 2.34
